Each recorded value in this set is attributed to ChEMBL document CHEMBL1201862.

- testedSystem: Carboxy-terminal domain RNA polymerase II polypeptide A small phosphatase 1 (Homo sapiens, UniProt Q9GZU7)
- Sequence (Q9GZU7 whole entry, the tested form may be a part): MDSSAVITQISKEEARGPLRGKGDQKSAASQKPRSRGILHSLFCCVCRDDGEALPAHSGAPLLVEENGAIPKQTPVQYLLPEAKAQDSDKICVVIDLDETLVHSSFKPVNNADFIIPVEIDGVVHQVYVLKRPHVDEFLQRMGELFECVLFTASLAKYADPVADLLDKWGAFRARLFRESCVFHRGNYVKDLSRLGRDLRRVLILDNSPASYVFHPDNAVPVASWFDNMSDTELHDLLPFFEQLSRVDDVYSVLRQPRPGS
- assayText: CTDSP1 inhibitors, concentration-response, biochemical, absorbance readout, ultra-high-throughput screen actives (AID 540297)
- Assay type: functional
The source made the active and inactive calls.
measuredQuantity: IC50

smilesRepresentation	observedMeasurement
CCOC(=O)c1cc2c(=O)n3cccc(C)c3nc2n(Cc2ccco2)/c1=N/C(=O)c1cccnc1	18.8 µM (active)
O=C(/C=C/c1ccco1)N(c1ccccn1)c1ccccn1	3.29 µM (active)
O=C(CNC(=O)c1cccc(OC(F)F)c1)OCc1cc(=O)n2cc(Br)ccc2n1	7.09 µM (active)
COc1ccc(/C=C2\SC(=S)N(CCC(=O)Nc3ccc(C(=O)O)cc3)C2=O)cc1	2.63 µM (active)
O=C(O)CCn1cc(C=C2C(=O)NC(=S)NC2=O)c(-c2cc3ccccc3oc2=O)n1	13 µM (active)
O=[N+]([O-])c1c(O)nc(/C=C\c2ccc(O)c(O)c2)nc1O	36.1 µM (active)
O=C(c1cc2c(s1)CCC2)N1CCN(c2ccccc2)CC1	22.4 µM (active)
COC(=O)c1cc(NC(=O)Cc2cccs2)cc(C(=O)OC)c1	3.84 µM (active)

###

- testedSystem: Major prion protein (Homo sapiens, UniProt P04156)
- Format: functional, cell-based
Active and inactive are the calls of the source.
Parameter: IC50. Scope: all listed entries.
measuredQuantity: IC50

smilesRepresentation	observedMeasurement
c1ccc(Cc2nnc(Sc3ccccc3)c3ccccc23)cc1	6.51 µM (active)
CCN(CC)S(=O)(=O)c1ccc(NC(=O)CSc2ncnc3ccccc23)cc1	7.17 µM (active)
Clc1cccc(Nc2ncnc3ccc(Br)cc23)c1	6.28 µM (active)
CC(C)c1nc(SCC(=O)N2CC(=O)Nc3ccccc32)c2ccccc2n1	2.41 µM (active)
O=C(CSc1ncnc2ccccc12)NCc1ccco1	6.83 µM (active)

###

Parameter: AC50. Scope: all listed entries.
- assayText: reduction of Shn3 3'UTR-driven luciferase in osteoblasts – cell-based, Clone20 osteoblasts, firefly luciferase, cherry-picked, dose response (AID 624132);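 further: firefly luciferase luminescence from reporter carrying the Shn3 3'UTR in osteoblasts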
- Assay type: functional
Active and inactive are the calls of the source.

compound	AC50
Cc1ccc(S(=O)(=O)N2[C@H](c3cccc(Cl)c3)CC(=O)[C@@H]3CN(S(=O)(=O)c4ccccc4C)[C@H](c4ccc(Cl)cc4)C[C@@H]32)cc1	289 nM (active)
COc1cc(NC(=O)COc2cc(O)c3c(c2)OC(C)(C)CC3=O)cc(OC)c1OC	354 nM (active)
COC(=O)Oc1ccc(/C=C/C(=O)OC(C)C)cc1OC(=O)OC	3290 nM (active)
CCCCC(=O)NC(c1ccc(C(C)C)cc1)c1ccc2cccnc2c1O (stereo not drawn)	570 nM (active)
CC1=NNC(=O)/C1=C\c1cn(-c2ccccc2)nc1-c1ccccc1	8420 nM (active)
CCCCn1c(CN(C)Cc2ccccc2)nc2c1c(=O)n(C)c(=O)n2C	2380 nM (active)
Oc1c(CN2CCN(c3ccc(F)cc3)CC2)cc(Cl)c2cccnc12	1320 nM (active)
O=C(c1ccc(F)cc1)C(CN1CCOCC1)c1ccccc1 (stereo not drawn)	17600 nM (active)

###

Parameter: IC50. Scope: all listed entries.
- testedSystem: UniProt:P41145
- Sequence (P41145 whole entry): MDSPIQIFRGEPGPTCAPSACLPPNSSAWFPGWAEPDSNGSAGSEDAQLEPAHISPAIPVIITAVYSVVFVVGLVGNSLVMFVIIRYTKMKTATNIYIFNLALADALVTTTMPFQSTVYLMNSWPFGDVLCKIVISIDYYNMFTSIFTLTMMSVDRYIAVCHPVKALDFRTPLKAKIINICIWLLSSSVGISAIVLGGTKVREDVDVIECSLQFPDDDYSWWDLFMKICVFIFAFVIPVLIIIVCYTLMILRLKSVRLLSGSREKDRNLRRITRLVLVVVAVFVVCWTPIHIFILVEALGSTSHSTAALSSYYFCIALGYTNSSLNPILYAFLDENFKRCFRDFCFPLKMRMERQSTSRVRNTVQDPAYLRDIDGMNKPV
- Assay type: functional
measuredQuantity: IC50 (µM)

compound	measuredQuantity	modifierSign	observedMeasurement
c1ccc(CSC2=NNC(c3ccccn3)S2)cc1 (configuration not stated)	IC50	>	32
S=c1sc2c(Cl)ncnc2n1-c1ccccc1	IC50	=	3.55

###

Parameter: IC50. Scope: all listed entries.
- testedSystem: SUMO-activating enzyme (Homo sapiens, UniProt Q9UBT2)
- Sequence (Q9UBE0 whole entry): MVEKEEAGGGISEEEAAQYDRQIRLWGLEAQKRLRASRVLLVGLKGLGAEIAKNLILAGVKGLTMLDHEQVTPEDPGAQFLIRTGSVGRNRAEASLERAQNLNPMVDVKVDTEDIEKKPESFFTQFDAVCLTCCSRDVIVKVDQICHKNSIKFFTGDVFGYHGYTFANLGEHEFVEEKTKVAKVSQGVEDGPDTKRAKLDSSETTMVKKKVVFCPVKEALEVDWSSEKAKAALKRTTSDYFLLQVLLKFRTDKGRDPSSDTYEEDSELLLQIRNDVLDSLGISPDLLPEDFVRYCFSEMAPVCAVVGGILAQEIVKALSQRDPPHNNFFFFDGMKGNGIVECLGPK
- Sequence (Q9UBT2 whole entry): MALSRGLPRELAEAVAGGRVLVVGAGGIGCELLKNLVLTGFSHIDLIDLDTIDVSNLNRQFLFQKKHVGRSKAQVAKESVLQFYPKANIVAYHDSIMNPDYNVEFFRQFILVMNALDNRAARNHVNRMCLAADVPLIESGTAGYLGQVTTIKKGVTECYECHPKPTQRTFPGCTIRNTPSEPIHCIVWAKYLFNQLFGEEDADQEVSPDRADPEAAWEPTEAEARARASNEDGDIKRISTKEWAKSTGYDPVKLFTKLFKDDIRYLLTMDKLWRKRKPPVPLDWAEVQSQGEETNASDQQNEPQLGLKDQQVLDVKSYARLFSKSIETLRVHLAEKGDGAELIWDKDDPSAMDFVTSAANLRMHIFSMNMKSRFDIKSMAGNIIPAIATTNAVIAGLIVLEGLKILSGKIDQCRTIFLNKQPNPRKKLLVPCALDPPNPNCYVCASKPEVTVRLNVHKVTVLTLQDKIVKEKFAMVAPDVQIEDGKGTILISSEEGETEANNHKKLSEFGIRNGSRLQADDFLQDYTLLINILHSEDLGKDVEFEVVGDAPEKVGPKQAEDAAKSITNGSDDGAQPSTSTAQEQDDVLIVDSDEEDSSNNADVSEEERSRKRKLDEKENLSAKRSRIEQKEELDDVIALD
- assayText: blockers of SAE1/SAE2–UBC9 SUMO transfer – biochemical, HTRF, uHTS, primary screen (AID 2006)
- Format: protein-complex assay
The source made the active and inactive calls.
measuredQuantity: IC50

smilesRepresentation	observedMeasurement
CN(C)c1cc(N/N=C\c2ccccc2)nc(N(C)C)n1	15.5 µM (active)
Oc1nc(Nc2ccc(F)cc2)cc2ccccc12	3.38 µM (active)
COc1cc(/C=C(\C#N)C(=O)Nc2cccc(C(=O)O)c2)ccc1OCc1ccc(Cl)cc1	17.5 µM (active)
Cc1cc(/C=N/Nc2ccc([N+](=O)[O-])cn2)c(C)n1-c1ccc(C(=O)O)cc1	29 µM (active)

###

- testedSystem: UniProt Q63470
- Assay type: biochemical, Homo sapiens
Activity calls are given as the source filed them.
Parameter: AC50. Scope: all listed entries.

smilesRepresentation	testedSystem	AC50
COc1ccc(-c2cc(=O)[nH][nH]2)cc1	UniProt Q63470	5.54 µM (active)
O=C1c2ccccc2C(=O)c2[nH]cnc21	UniProt Q63470	7.57 µM (active)
Cc1ccc(/N=c2\oc3cc(O)ccc3cc2C(N)=O)cc1	UniProt Q63470	0.074 µM (active)
Oc1ccc(/C=N/n2c(S)nnc2COc2ccccc2)c(O)c1	UniProt Q63470	0.796 µM (active)
COc1ccc2[nH]c(C(=O)N/N=C/c3ccccc3OC)cc2c1	UniProt Q63470	2.17 µM (active)
N=C1/C(=C\c2ccc(-c3cccc(C(=O)O)c3)o2)C(=O)N=C2SC=C(c3ccccc3)N12	UniProt Q63470	2.19 µM (active)

###

- assayText: viability loss in HeLa cells – cytotoxicity control for MgcRacGAP inhibitor project, dose response (AID 624300)
- Type: functional
Activity calls are given as the source filed them.
Parameter: CC50. Scope: all listed entries.

smilesRepresentation	CC50
CCN1/C(=C/c2ccc3ccccc3[n+]2CC)C=Cc2ccccc21	19 µM (active)
O=C1NC(=S)S/C1=C\c1cc(Cl)cc(Cl)c1O	100 µM (active)
CCN(CC)CCOc1ccc2c(c1)C(=NNC(=O)c1ccccn1)c1cc(OCCN(CC)CC)ccc1-2	31.7 µM (active)
CCCN1C(=O)/C(=C/c2cc(C)n(C)c2C)S/C1=N/c1ccc(OCC)cc1	100 µM (active)
Cc1ccc(-n2sc3cc(F)ccc3c2=O)c(C)c1	72.5 µM (active)

###

Parameter: EC50. Scope: all listed entries.
- testedSystem: Oxysterols receptor LXR-beta (Homo sapiens, UniProt P55055)
- Sequence (P55055 whole entry): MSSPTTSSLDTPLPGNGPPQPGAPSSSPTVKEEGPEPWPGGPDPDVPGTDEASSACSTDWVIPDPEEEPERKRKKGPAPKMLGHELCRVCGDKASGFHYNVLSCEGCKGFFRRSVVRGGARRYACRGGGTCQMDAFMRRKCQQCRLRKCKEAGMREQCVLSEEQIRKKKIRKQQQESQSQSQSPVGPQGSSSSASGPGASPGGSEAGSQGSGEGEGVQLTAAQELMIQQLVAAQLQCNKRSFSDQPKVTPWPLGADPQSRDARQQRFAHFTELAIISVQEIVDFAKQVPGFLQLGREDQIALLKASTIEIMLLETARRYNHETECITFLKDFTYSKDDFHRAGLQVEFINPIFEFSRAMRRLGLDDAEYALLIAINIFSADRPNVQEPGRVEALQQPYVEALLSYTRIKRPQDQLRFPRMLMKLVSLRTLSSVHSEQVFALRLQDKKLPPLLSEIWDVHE
- assayText: LXR agonists, Gal4 luciferase reporter, dose response, counter-screen for ssDAF-12 agonist project, cell-based, luminescence, HEK293, S. stercoralis campaign (AID 720737)
- Assay type: functional
- appliedConditions: read-out: IC50 (the source's name)
Active and inactive are the calls of the source.

smilesRepresentation	EC50
Cc1ccc(N/C=C/C(=O)c2ccccc2)cc1Br	> 67.6 µM (inactive)
Cn1c(CNc2ccc(F)cc2)nc2ccccc21	> 67.5 µM (inactive)
c1ccc(-c2ccc(-c3ccccn3)s2)nc1	> 67.6 µM (inactive)
CCc1sc(C(=O)N2CCc3ccccc32)cc1C	> 67.5 µM (inactive)
Oc1cccc(/C=N/Nc2cccc3cccnc23)c1	> 67.5 µM (inactive)

###

- testedSystem: Zinc finger protein mex-5 (Caenorhabditis elegans)
- Sequence (Q9XUB2 whole entry): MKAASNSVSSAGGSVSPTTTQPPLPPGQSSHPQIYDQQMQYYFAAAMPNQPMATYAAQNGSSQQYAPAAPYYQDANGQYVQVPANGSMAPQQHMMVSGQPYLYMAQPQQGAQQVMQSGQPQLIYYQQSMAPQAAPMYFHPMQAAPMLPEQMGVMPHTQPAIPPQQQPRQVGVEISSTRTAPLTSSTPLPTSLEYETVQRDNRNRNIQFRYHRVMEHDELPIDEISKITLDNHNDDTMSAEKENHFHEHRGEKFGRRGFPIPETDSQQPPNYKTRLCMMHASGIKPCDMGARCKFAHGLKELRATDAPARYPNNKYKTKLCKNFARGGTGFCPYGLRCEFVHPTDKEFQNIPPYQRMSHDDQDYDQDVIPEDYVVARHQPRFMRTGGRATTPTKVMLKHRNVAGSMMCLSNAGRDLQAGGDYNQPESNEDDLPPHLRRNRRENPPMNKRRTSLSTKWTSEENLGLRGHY
- assayText: potency of MEX-5 RNA-binding blockers – biochemical, C. elegans, fluorescence polarization, dose response (AID 1960)
Calls of active or inactive are those of the source.
measuredQuantity: EC50

smilesRepresentation	measuredQuantity	observedMeasurement
Cn1ncc2c(NNC(=O)Cc3ccccc3)ncnc21	EC50	10.5 µM (active)
CSC(=Nc1cccc(Cl)c1C)NS(=O)(=O)c1cccs1	EC50	> 300 µM (not active)
COc1ccc(C=C2C(=O)OC(C)(C)OC2=O)cc1OC	EC50	> 300 µM (not active)
COc1cccc(NC(=O)c2ccccc2Br)c1	EC50	> 300 µM (not active)
O=C(O)c1ccc2c(c1)[C@@H]1C=CC[C@@H]1[C@H](c1ccccn1)N2	EC50	31.1 µM (inconclusive)
Oc1ccc2ccccc2c1/C=N/c1ccc(N2CCOCC2)cc1	EC50	> 300 µM (not active)
O=C1c2ccccc2C(=O)c2[nH]cnc21	EC50	85.6 µM (active)
CC(C)(C)c1ccc(OCc2ccc(C(=O)Nc3cccnc3)o2)cc1	EC50	> 300 µM (not active)
Cc1c(N/C=C2\C(=O)NC(=O)N(Cc3ccco3)C2=O)c(=O)n(-c2ccccc2)n1C	EC50	> 300 µM (not active)
CCOC(=O)c1c(-n2c(C)cc(/C=C3/C(=O)NC(=O)N(CC)C3=O)c2C)sc2c1CCCC2	EC50	29.8 µM (active)
O/C(=C(\C([S-])=NCc1ccco1)[n+]1ccccc1)c1ccccc1Br	EC50	58.4 µM (active)
